Origin of the recorded values: ChEMBL document CHEMBL1201862

- Tested on: Malme-3M
- assay remarks: NCI tumour cell line growth inhibition, 48 h
Active and inactive are the calls of the source. No stated cut-off is given here; in the data, active = GI50 up to about 1.1 µM and inactive = higher.
# reported GI50; entries follow

compound	GI50
CC1(C)CC(O)C(C)(C)[C@@H](O)C1 (stereo not given in full)	> 100 µM (inactive)
COC1(OC)N=C(N)C2(C#N)/C(=N/N(C)C)CC(C)C12C#N (stereo not given)	> 100 µM (inactive)
COc1ccc(NC(=S)c2ccc(CN3CCCCC3)s2)cc1	17.5 µM (inactive)
C#CCN(Cc1ccc2nc(-c3ccccc3)c(N)nc2c1)c1cc(OC)c(OC)c(OC)c1	26.9 µM (inactive)
CC1(O)C(=O)OC2CC([C@]3(O)CCC4[C@@H]5C[C@H]6O[C@]67[C@@H](O)C=CC(=O)[C@]7(C)C5CC[C@@]43C)C1(C)C2 (stereo not given in full)	3.76 µM (inactive)

Q: Need GI50 of CN(C)C(=O)OCOC(=O)N(C)C , thanks.
A: > 100 µM (inactive)

Q: Need GI50 of Cc1nc2ccc(NC(=S)Nc3ccccc3)cc2c(=O)n1-c1ccccc1 , thanks.
A: > 100 µM (inactive)

---

- System: CAKI-1
- assay remarks: NCI tumour cell line growth inhibition, 48 h
Calls of active or inactive are those of the source. Rule as the data show it: active = GI50 up to about 1.1 µM and inactive = higher.
measured attribute: GI50

These solved cases illustrate the format of a correct answer.
> print(dat)
                                   molecule  measured.attribute             measured
1                O=C1CCC[C@]2(CCCC(=O)N2)C1                GI50  > 100 µM (inactive)
2     O=C(O)CNc1cc(-c2ccccc2)nc(NCC(=O)O)n1                GI50  > 100 µM (inactive)
3                 C#CCSc1nc(-c2ccco2)n[nH]1                GI50  > 100 µM (inactive)
4  NC(Cc1ccc(OCc2ccccc2)cc1)C(=O)NC(Cc1ccccc1)C(=O)Oc1c(Cl)c(Cl)c(Cl)c(Cl)c1Cl (centres undefined)                GI50   16.7 µM (inactive)
5  CCOC(=O)c1[nH]c2cccc3c2c1CC(Br)C3=O (centres undefined)                GI50   11.2 µM (inactive)

Q: Need GI50 of CN[C@@H](C)[C@H](NC)c1ccccc1 , thanks.
A: > 100 µM (inactive)

Q: Need GI50 of Nc1ccc(OCCCc2c(-c3ccccc3)[nH]c(N)nc2=O)cc1 , thanks.
A: 91.6 µM (inactive)

Q: Need GI50 of Cc1ccc(S(=O)(=O)N(/N=C(\N)Oc2ccc(Cl)cc2)C(=N)Oc2ccc(Cl)cc2)cc1 , thanks.
A: > 100 µM (inactive)

Q: Need GI50 of O=C(O)c1ccccc1/C=C1\Cc2ccccc2C1=O , thanks.
A: > 100 µM (inactive)

Q: Need GI50 of CC1(Br)C(=O)NC(=O)N(C2CC(N=[N+]=[N-])C(CO)O2)C1N=[N+]=[N-] (centres undefined) , thanks.
A: 70.8 µM (inactive)

---

- System: MOLT-4
- assay remarks: NCI tumour cell line growth inhibition, 48 h
Activity calls are given as the source filed them. Cut-off read from the data, not from the text of the source: active = GI50 up to about 1.1 µM and inactive = higher.
# reported GI50; entries follow

These solved cases illustrate the format of a correct answer.
> print(dat)
                                   compound  measured.attribute             measured
1  O=C(O)CC(NC(=O)/C(=C/c1ccccc1)NC(=O)c1ccccc1)C(=O)O (stereo unspecified)                GI50  > 100 µM (inactive)
2         CCc1cccc(C)c1NC(=O)CC(=O)NNC(N)=S                GI50  > 100 µM (inactive)

Q: Need GI50 of c1cc2nnc1SCCSCCCSCCS2 , thanks.
A: > 100 µM (inactive)

Q: Need GI50 of CC1=C2C(=O)NN=C2CCN1c1ccc(Br)cc1 , thanks.
A: 9.62 µM (inactive)

---

- Tested on: OVCAR-8
- assay remarks: NCI tumour cell line growth inhibition, 48 h
The source made the active and inactive calls. No stated cut-off is given here; in the data, active = GI50 up to about 1.1 µM and inactive = higher.
# output must be one of active, inactive

Q: Name the outcome recorded for C/C(=N\Nc1nc2ccccc2[nH]1)c1cnccn1 in the assay.
A: active

Q: Name the outcome recorded for Oc1cn(-c2ccc(Cl)cc2)nc1-c1n[nH]c(=S)n1-c1ccccc1 in the assay.
A: inactive

Q: Name the outcome recorded for Cc1cccc(C(C)(C)C)c1NC(=O)C(=O)C(C(=O)/C=C\c1ccccc1)C1OC(=O)c2ccccc21 (stereo unspecified) in the assay.
A: inactive

---

# reported GI50; entries follow
- Tested on: LXFL 529
- assay remarks: NCI tumour cell line growth inhibition, 48 h
The source made the active and inactive calls. No stated cut-off is given here; in the data, active = GI50 up to about 1.1 µM and inactive = higher.

compound	system	GI50
CCOC(=O)/C(=C/c1cc(OC)ccc1OC)CC(=O)O	LXFL 529	> 100 µM (inactive)
COc1ccc(NC(=O)C(=O)Cc2nc3ccc([N+](=O)[O-])cc3nc2O)c(OC)c1	LXFL 529	> 100 µM (inactive)
N#CC(=C1C=CC(=NO)C=C1)c1ccc(Cl)cc1	LXFL 529	4.97 µM (inactive)

# next compound below
Q: Request - read-out GI50 | tested on LXFL 529 | compound CSc1nc(NC2OC(COC(C)=O)C(OC(C)=O)C(OC(C)=O)C2OC(C)=O)c(/N=C/C=N/c2c(NC3OC(COC(C)=O)C(OC(C)=O)C(OC(C)=O)C3OC(C)=O)nc(SC)[nH]c2=O)c(=O)[nH]1 (centres undefined)
A: > 100 µM (inactive)

---

- System: COLO 205
- assay remarks: NCI tumour cell line growth inhibition, 48 h
Activity calls are given as the source filed them. Rule as the data show it: active = GI50 up to about 1.1 µM and inactive = higher.
measured attribute: GI50

These solved cases illustrate the format of a correct answer.
> print(dat)
                                   molecule             measured
1      O=C(/C=C/c1ccc(Cl)c(Cl)c1)c1ccccc1Cl   16.1 µM (inactive)
2            N#CCCN(CCC#N)c1ccc(C(=O)NN)cc1  > 100 µM (inactive)
3  CC1(C)OC2C(=O)C=C(COCc3ccccc3)C2O1 (stereo unspecified)   20.5 µM (inactive)
4  CNCC(=O)Nc1ccc2c(c1)C(=O)c1ccc(NC(=O)CNC)cc1C2=O   2.37 µM (inactive)
5  C[C@@H]1OC2(O)[C@H]3CCCN3S(=O)(=O)CCN2C1=O (stereo partly specified)  > 100 µM (inactive)

Q: Need GI50 of O=c1[nH]c(=O)n(C2CC(O)C(O)C(CO)O2)cc1F (stereo unspecified) , thanks.
A: > 100 µM (inactive)

---

- Test system: Hs-578T
- assay remarks: NCI tumour cell line growth inhibition, 48 h
Active and inactive are the calls of the source. Rule as the data show it: active = GI50 up to about 1.1 µM and inactive = higher.
# reported GI50; entries follow

These solved cases illustrate the format of a correct answer.
> print(dat)
                                   compound   system             measured
1  CON(C)C(=O)C(C)NC(=O)OC(C)(C)C (stereo not drawn)  Hs-578T  > 100 µM (inactive)
2                      O=C(O)Cc1cc(Cl)ccc1O  Hs-578T  > 100 µM (inactive)
3  COC1(OC)N=C(N)C2(C#N)/C(=N/N(C)C)CC(C)C12C#N (stereo not drawn)  Hs-578T  > 100 µM (inactive)
4  O=C(/C=C(\N=P(c1ccccc1)(c1ccccc1)c1ccccc1)C(F)(F)C(F)(F)C(F)(F)C(F)(F)C(F)(F)C(F)(F)C(F)(F)F)c1ccccc1  Hs-578T  > 100 µM (inactive)
5  Cc1cc(C)nc(NS(=O)(=O)c2ccc(Nc3c4ccccc4nc4ccc(C(=O)Nc5ccc(S(N)(=O)=O)cc5)cc34)cc2)n1  Hs-578T  > 100 µM (inactive)

Q: Need GI50 of CC1=CC(=O)/C(=C(/C)NCCN(CCN/C(C)=C2\C(=O)C=C(C)OC2=O)CCN/C(C)=C2\C(=O)C=C(C)OC2=O)C(=O)O1 , thanks.
A: > 100 µM (inactive)

Q: Need GI50 of CC1(O)C(=O)OC2CC([C@]3(O)CCC4[C@@H]5C[C@H]6O[C@]67[C@@H](O)C=CC(=O)[C@]7(C)C5CC[C@@]43C)C1(C)C2 (stereo partly drawn) , thanks.
A: 26.3 µM (inactive)

Q: Need GI50 of CC(NCCN(C)C)C1CCC2C3CCc4cc(O)ccc4C3CCC12C (stereo not drawn) , thanks.
A: 4.17 µM (inactive)

---

- Test system: UACC-62
- assay remarks: NCI tumour cell line growth inhibition, 48 h
Activity calls are given as the source filed them. No stated cut-off is given here; in the data, active = GI50 up to about 1.1 µM and inactive = higher.
# output must be one of 1 (active), 0 (inactive)

Q: Name the outcome recorded for O=C(O)C12CCCC(CCC1)C2 in the assay.
A: 0

Q: Name the outcome recorded for CC(=O)/C(=C\c1cccc([N+](=O)[O-])c1)C(=O)Nc1ccccc1C in the assay.
A: 0

Q: Name the outcome recorded for CC(=O)NC1C(=O)CC(c2ccccc2)N(C)C1c1ccccc1 (stereo unspecified) in the assay.
A: 0

Q: Name the outcome recorded for C1=C2/CC[C@H](Sc3ccccc3)C2C2(CCCCC/1)OCCO2 (stereo partly specified) in the assay.
A: 0

Q: Name the outcome recorded for CCN(CC)CCSc1c2ccccc2nc2cc(NCC(=O)Nc3ccccc3-c3ccccc3NC(=O)CNc3ccc4c(SCCN(CC)CC)c5ccccc5nc4c3)ccc12 in the assay.
A: 0
